The reported measurements were obtained from PubChem BioAssay (NCI).

Measured growth inhibition, listed per entry for reference.
# protocol-notes: NCI Yeast Anticancer Drug Screen. Data for the bub3 strain (AID 167)
# stated-conditions: S. cerevisiae bub3 mutant strain, at 50.0 µM, stronger effect = higher value
This is part of a sample that, as a whole, favours compounds with a hit. Of some 79,000 tested, about 15% had one in any assay.
Please give a number only; it is taken to be in %.

| compound | growth inhibition, % |
| --- | --- |
| CS/C(c1ccccc1)=[N+](/C)[O-] | 24.6 |

Lookup result for CC(=O)Oc1cccc2ccccc12 ; measured growth inhibition: -36.8

Lookup result for CC(=N/Nc1ccc([N+](=O)[O-])cc1[N+](=O)[O-])/C(C)=C/C1C=CCCC1(C)C (stereo unspecified) ; measured growth inhibition: 16.1

====

# protocol-notes: NCI Yeast Anticancer Drug Screen. Data for the sgs1 mgt1 strain (AID 161);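 note: 0% = growth of cultures given vehicle only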
# stated-conditions: S. cerevisiae sgs1 mgt1 strain, at 50.0 µM, stronger effect = higher value
# Protocol: Growth inhibition of yeast strains with defined genetic alterations is measured as a screen for potential anti-cancer activity. Selected strains with alterations in DNA damage repair or cell cycle control were exposed to compounds and growth inhibition was measured relative to vehicle treated controls. The strain used in this assay is sgs1 mgt1
This is part of a sample that, as a whole, favours compounds with a hit. Of some 79,000 tested, about 15% had one in any assay.
Measured growth inhibition, listed per entry for reference.
Please give a number only; it is taken to be in %.

// solved cases for growth inhibition follow
| molecule | unit-descriptor | growth inhibition |
| --- | --- | --- |
| CC(=O)c1ccncc1 | % | 6.65 |
| Cc1ccc2ccccc2c1[N+](=O)[O-] | % | 37.3 |
| O=S(=O)(O)c1cccc2c(O)cccc12 | % | 5.65 |
| O=c1cccc(CCc2ccccc2)[nH]1 | % | -9.6 |
| Cc1c(C)c(C)c(S(=O)(=O)NCCNS(=O)(=O)c2c(C)c(C)c(C)c(C)c2C)c(C)c1C | % | -0.7 |
| NC(N)=Nc1nc2ccc(Cl)cc2[nH]1 | % | 22.8 |
| O=C1CSC(c2ccc([N+](=O)[O-])cc2)N1c1nncs1 (stereo not drawn) | % | 7.25 |
| COc1ccc2c(c1)CCC1=C2CCC(C(=O)O)C1(C)C(=O)O (stereo not drawn) | % | 9.25 |
| O=C(OCc1ccccc1CN1CCCC1)c1cccc(Cl)c1 | % | -8.1 |
| COc1ccc(S(=O)(=O)O)cc1N | % | -13.5 |

Lookup result for Cc1ccc(N=C2C(c3ccccc3)=C(SC3=C(c4ccccc4)C(=Nc4ccc(C)cc4)c4ccccc43)c3ccccc32)cc1 ; measured growth inhibition: 3.9

Lookup result for CN(C)/C=C/C(=O)c1ccccc1 ; measured growth inhibition: 17.6

Lookup result for CCN(CC)c1ccc2c(c1)C(O)c1ccccc1-2 (stereo not drawn) ; measured growth inhibition: -5.7

Lookup result for COC(=O)c1nc(N)nc(C(=O)OC)c1C(=O)c1cccc([N+](=O)[O-])c1 ; measured growth inhibition: -33.2

Lookup result for COc1cc(C2SCCCCCCCCCCSC(c3ccc(O)c(OC)c3)SCCCCCCCCCCS2)ccc1O (stereo not drawn) ; measured growth inhibition: -29.2

====

# protocol-notes: NCI Yeast Anticancer Drug Screen. Data for the cln2 rad14 strain (AID 165);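 note: 0% = growth equal to vehicle treated cultures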
# stated-conditions: S. cerevisiae cln2 rad14 strain, at 50.0 µM, stronger effect = higher value
The panel holds about 79,000 compounds, 15% with a hit somewhere; the sample as a whole holds those more often.
measurement-name: growth inhibition (%)
Please give a number only; it is taken to be in %.

// solved cases for growth inhibition follow
| molecule | measured |
| --- | --- |
| Cc1[nH]c(=O)[nH]c(=O)c1/C=C/C(=O)NC(CO)CS(=O)CS(C)=O (stereo unspecified) | 13.1 |
| O=c1[nH]cnc2c1CNC2 | -65.8 |
| COC(O)C(=O)c1c2c(cc3c1CCC3)CCC2 (stereo unspecified) | 12.3 |
| CC(C)c1ccc(OC(=O)N(c2ccccc2)c2ccccc2)cc1 | 3.5 |
| C=CCc1cc(C)ccc1OC(=O)c1cc([N+](=O)[O-])cc([N+](=O)[O-])c1 | -40 |

Please turn your attention to the following entry.
Lookup result for CCOC(=O)c1cc2sc(NC(=O)c3ccco3)nc2o1 ; measured growth inhibition: 4.3

====

# protocol-notes: NCI Yeast Anticancer Drug Screen. Data for the bub3 strain (AID 167)
# stated-conditions: S. cerevisiae bub3 mutant strain, at 50.0 µM
This is part of a sample that, as a whole, favours compounds with a hit. Of some 79,000 tested, about 15% had one in any assay. Calls of active or inactive are those of the source. Cut-off read from the data, not from the text of the source: active = growth inhibition above about 70%; inactive = the rest.
The reply should name one outcome from active, inactive

Worked examples follow.
| compound | class |
| --- | --- |
| CNC(=O)C1CCCN1C(=O)C(Cc1cnc[nH]1)NC(=O)C1CCC(=O)N1 (stereo not drawn) | inactive |
| N#CC1(C#N)CC1(C#N)C#N | inactive |

Consider the additional compound presented here.
Record lookup: outcome of this test for CCN(CC)CCCC(C)NCCCN (stereo not drawn) ?
inactive

====

# protocol-notes: NCI Yeast Anticancer Drug Screen. Data for the cln2 rad14 strain (AID 165);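 note: 0% = growth equal to vehicle treated cultures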
# stated-conditions: S. cerevisiae cln2 rad14 strain, at 50.0 µM, stronger effect = higher value
The panel holds about 79,000 compounds, 15% with a hit somewhere; the sample as a whole holds those more often.
Measured growth inhibition, listed per entry for reference.
Please give a number only; it is taken to be in %.

// solved cases for growth inhibition follow
| molecule | measurement-name | measured |
| --- | --- | --- |
| COc1cc2c(c(OC)c1OC)-c1ccc(SC)c(=O)cc1[C@@H](NC(=O)NCCCl)CC2 | growth inhibition | 4.6 |
| Nc1ccc(N(C(=O)c2ccccc2)C(=O)c2ccccc2)c(-c2ccccc2)c1 | growth inhibition | 3.35 |

Lookup result for CC(=O)NC(C)NC(C)=O ; measured growth inhibition: -86.5

Lookup result for CC(=O)CC(=O)Nc1ccc(-c2ccccc2)cc1 ; measured growth inhibition: -16.2

Lookup result for CCN(CC)c1ccc2cc(C(=O)NC(=O)Oc3ccccc3)c(=O)oc2c1 ; measured growth inhibition: 25.1

Lookup result for OCC1CCN(CCOCc2ccccc2)C1 (configuration not stated) ; measured growth inhibition: -32.5

Lookup result for COc1ccc(NC(=O)CCC(=O)CC(=O)c2ccc(C)cc2)cc1 ; measured growth inhibition: -23.4

Lookup result for CC1=CCC(C(C)(C)NC(=O)c2ccccc2)C/C1=N/O (configuration not stated) ; measured growth inhibition: -49.2

====

# protocol-notes: NCI Yeast Anticancer Drug Screen. Data for the rad50 strain (AID 155);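 note: 0% = growth of vehicle-only cultures of the same strain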
# stated-conditions: S. cerevisiae rad50 strain growth inhibition; at 50.0 µM; stronger effect = higher value
The panel holds about 79,000 compounds, 15% with a hit somewhere; the sample as a whole holds those more often. Active and inactive are the calls of the source. Rule as the data show it: active = growth inhibition above about 70%; inactive = the rest.
Measured growth inhibition, listed per entry for reference.

// solved cases for growth inhibition follow
| compound | growth inhibition |
| --- | --- |
| Clc1c(Cl)c(CBr)c(Cl)c(-c2c(Cl)c(Cl)c(Cl)c(CBr)c2Cl)c1Cl | 2.15% (inactive) |
| CCOC(=O)C1CC(C)c2[nH]c3ccccc3c21 (stereo unspecified) | 2.2% (inactive) |
| Cl/C(=C\c1ccccc1)c1ccccc1 | 20.4% (inactive) |
| CC1CC[C@@]23CCC4(C)[C@@](C=CC5[C@@]6(C)CCC(=O)C(C)(C)C6CC[C@]54C)(OC2=O)[C@@H]3[C@H]1C (stereo partly specified) | -14.8% (inactive) |
| CSc1ccc(OC(=O)C(C)NC(=O)C(CO)NC(=O)OCc2ccccc2)cc1 (stereo unspecified) | 5.85% (inactive) |

Lookup result for O=C(Nc1ccc2ccccc2c1)c1ccc(Cl)c(Cl)c1 ; measured growth inhibition: -5% (inactive)

====

# protocol-notes: NCI Yeast Anticancer Drug Screen. Data for the mec2-1 strain (AID 157)
# stated-conditions: S. cerevisiae mec2-1 strain, at 50.0 µM, stronger effect = higher value
About 79,000 compounds went through this panel and 15% of them were active in at least one assay; those are over-represented in the sample as a whole.
measurement-name: growth inhibition (%)
Please give a number only; it is taken to be in %.

// solved cases for growth inhibition follow
| compound | unit-descriptor | growth inhibition |
| --- | --- | --- |
| c1ccc(N2CCN(c3ccccn3)CC2)nc1 | % | -13.6 |
| C[C@@H]1C[C@@H]2C(=O)N(c3ccccc3)C(=O)[C@@H]2c2[nH]c3ccc(Br)cc3c21 | % | -12.6 |
| O=C(CC(=O)c1ccccc1)Nc1ccc(-c2nc3ccccc3c(=O)[nH]2)cc1 | % | 10.5 |

Lookup result for Cc1cccc(N=C2NC(=O)C(CC(=O)Nc3ccc(Cl)cc3C)S2)c1 (stereo unspecified) ; measured growth inhibition: -1.9

Lookup result for Cc1ccc(N=C2C(c3ccccc3)=C(SC3=C(c4ccccc4)C(=Nc4ccc(C)cc4)c4ccccc43)c3ccccc32)cc1 ; measured growth inhibition: 0.7

Lookup result for Cc1cnc2[nH]c(-c3ccccc3)cc(=O)c2c1 ; measured growth inhibition: -12.6
